// provenance: patent US10844044B2

So I've got a bunch of compounds here, and I need their pKi values.
# target: WDR5 (Homo sapiens (Human))
# procedure text: TR-FRET binding assay (displacement of 10mer-Thr-FAM probe from WDR5)
# study conditions: read-out: Ki for Inhibition of WDR5 by TR-FRET assay
pKi: −log10 of the molar value.

// lookup pKi for "CCn1cc(-c2cc(Cn3ccn(C)c3=N)cc(C(=O)N[C@H](c3ccc(Cl)c(Cl)c3)C3CC3)c2)c(C(F)(F)F)n1"
> 10.00

// lookup pKi for "Cc1cc([C@@H](NC(=O)c2cc(Cn3ccsc3=N)cc(-c3cn(C(C)C)nc3C(F)(F)F)c2)C2CC2)ccc1F"
> 10.00

// lookup pKi for "COc1cc([C@@H](NC(=O)c2cc(CN3CCCC3=N)cc(-c3cn(C)nc3C(F)(F)F)c2)C2CC2)ccc1F"
> 10.00

---

# Tested on: MV4:11 human cancer cell lines
# procedure text: Anti-proliferative activity, CellTiter-Glo viability assay, 7 day protocol
# Type: cell-based
# study conditions: Homo sapiens, MV4-11, 168 h, MV4:11 cells, 7 day incubation, read-out: GI50 on cellular proliferation of MV4:11 human cancer cell lines
So I've got a bunch of compounds here, and I need their GI50 values.

// lookup GI50 for "Cc1cc([C@@H](NC(=O)c2cc(Cn3ccn(C)c3=N)cc(-c3ccc(F)cc3C(F)(F)F)c2F)C2CC2)ccc1F"
< 100 nM

// lookup GI50 for "CCOc1c(C(=O)N[C@@H](C)c2ccc(F)c(C)c2)cc(CN2CCOC2=N)cc1-c1cn(C)nc1C(F)(F)F"
< 100 nM

// lookup GI50 for "Cc1cc([C@@H](NC(=O)c2cc(Cn3ccn(C)c3=N)cc(-c3ccc(F)cc3Cl)c2)C2CC2)ncc1F"
< 100 nM

---

So I've got a bunch of molecules here, and I need their pKi values.
# target: WDR5 (Homo sapiens (Human), UniProt P61964)
# procedure text: TR-FRET binding assay (displacement of 10mer-Thr-FAM probe from WDR5)
# study conditions: read-out: Ki for Inhibition of WDR5 by TR-FRET assay; TR-FRET, 10mer-Thr-FAM probe, WDR5-His tag 2 nM, pH 7.0
pKi: −log10 of the molar value.

// fetch WDR5 (Homo sapiens (Human), UniProt P61964) pKi for Cc1cc([C@@H](NC(=O)c2cc(CN3CCOC3=N)cc(-c3ccc(F)cc3C(F)(F)F)c2)C2CC2)ccc1F [Example 285]
> 10.00

// fetch WDR5 (Homo sapiens (Human), UniProt P61964) pKi for Cn1cc(-c2cc(Cn3ccn(C)c3=N)cc(C(=O)N[C@H](c3ccc(Cl)c(Cl)c3)C3CC3)c2)c(C(F)(F)F)n1 [Example 211]
> 10.00

// fetch WDR5 (Homo sapiens (Human), UniProt P61964) pKi for Cc1cc([C@@H](NC(=O)c2cc(Cn3ccn(C)c3=N)cc(-c3cn(C(C)C)nc3C(F)(F)F)c2)C2CC2)ccc1F [Example 193]
> 10.00

---

# target: WDR5 (Homo sapiens (Human))
# procedure text: TR-FRET binding assay (displacement of 10mer-Thr-FAM probe from WDR5)
# study conditions: read-out: Ki for Inhibition of WDR5 by TR-FRET assay
reported property: Ki

// fetch WDR5 (Homo sapiens (Human)) Ki for Cc1cc([C@@H](NC(=O)c2cc(Cn3ccn(-c4ccccc4)c3=N)cc(-c3cccnc3C(F)(F)F)c2)C2CC2)ccc1F [Example 137]
> 33000 pM

// fetch WDR5 (Homo sapiens (Human)) Ki for Cn1cc(-c2cc(Cn3ccoc3=N)cc(C(=O)N[C@H](c3ccc(Cl)c(Cl)c3)C3CC3)c2)c(C(F)(F)F)n1 [Example 268]
< 100 pM

// fetch WDR5 (Homo sapiens (Human)) Ki for CCn1cc(-c2cc(Cn3ccsc3=N)cc(C(=O)N[C@H](c3ccc(Cl)c(F)c3)C3CC3)c2)c(C(F)(F)F)n1 [Example 324]
< 100 pM

// fetch WDR5 (Homo sapiens (Human)) Ki for Cc1cc([C@@H](NC(=O)c2cc(CN3CCN(C)C3=N)cc(-c3cn(C)nc3C(F)(F)F)c2)C2CC2)ccc1F [Example 203]
< 100 pM

// fetch WDR5 (Homo sapiens (Human)) Ki for Cc1cc([C@@H](NC(=O)c2cc(Cn3ccoc3=N)cc(-c3cn(C)nc3C(F)(F)F)c2)C2CC2)ccc1F [Example 259]
< 100 pM

// fetch WDR5 (Homo sapiens (Human)) Ki for CCOC(=O)/N=c1\n(C)ccn1Cc1cc(C(=O)NCc2ccc(Cl)c(Cl)c2)cc(-c2ccc(F)nc2C)c1 [Example 122]
> 33000 pM

// fetch WDR5 (Homo sapiens (Human)) Ki for Cc1cc([C@@H](NC(=O)c2cc(CN3CCOC3=N)cc(-c3cc(C(F)(F)F)nn3C)c2)C2CC2)ccc1F [Example 287]
< 100 pM
